System: PC3
Test: Cytostatic cell culture assay (GI50), SRB
Format: cell-based
Conditions: 5 days incubation
From the text: The assay is based on quantification of cell counts by a colorimetric detection of the cell associated proteins. The assay relies on the ability of sulforhodamine B (SRB) to bind to protein components of cells that have been fixed to tissue-culture plates by trichloroacetic acid (TCA). […] • 1. […] Measure the OD at 500 nm in a microplate reader • 13. […]
Collected GI50 values appear next to each entry.
Reply numerically in nM, unit not repeated.

Guide cases for GI50, answers given:
QUERY: What does the data say about its GI50? Entry: CCCCOC(=O)[C@H](C)NP(=O)(COCCn1cnc2c(OCCC)nc(N)nc21)Oc1ccccc1 (single isomer, unassigned) [Example 52a]
RESULT: 8

QUERY: What does the data say about its GI50? Entry: CCCCOC(=O)[C@H](C)NP(=O)(COCCn1cnc2c(OCCC)nc(N)nc21)Oc1ccccc1 (single isomer, unassigned) [Example 52b]
RESULT: 3

QUERY: What does the data say about its GI50? Entry: CCCOc1nc(N)nc2c1ncn2CCOCP(=O)(N[C@@H](C)C(=O)OCC)Oc1ccccc1 (single isomer, unassigned) [Example 53b]
RESULT: 180

Here's the next entry for you.
QUERY: What does the data say about its GI50? Entry: CCCOc1nc(N)nc2c1ncn2CCOCP(=O)(N[C@@H](C)C(=O)OCC)Oc1ccccc1 (single isomer, unassigned) [Example 53a]
RESULT: 31

Source: patent US8163718B2
